biological target: Ubiquitin-conjugating enzyme E2 N (Homo sapiens, UniProt P61088); assay type: functional;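 note: Dose-response confirmation in a TR-FRET assay detecting UBC13-driven polyubiquitin chain formation, inhibition measured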
Sequence (P61088 whole entry): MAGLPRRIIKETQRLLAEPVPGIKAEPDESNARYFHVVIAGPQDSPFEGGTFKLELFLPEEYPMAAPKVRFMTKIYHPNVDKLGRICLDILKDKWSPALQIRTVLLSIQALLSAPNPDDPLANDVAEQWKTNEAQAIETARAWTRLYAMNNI
Active and inactive are the calls of the source.
Outcomes: 1 (yes) = active, 0 (no) = inactive

>  <molecule>
CCOC(=O)c1c(-c2ccc(-c3ccccc3)cc2)csc1NC(=O)CNCCN(C)C

>  <class-assignment>
1 (yes)

$$$$
>  <molecule>
Nc1nc(Cl)nc2ccc(Br)cc12

>  <class-assignment>
0 (no)

$$$$
>  <molecule>
COc1cc(-c2cc(C(=O)Nc3ccc(S(N)(=O)=O)cc3)c3ccccc3n2)cc(OC)c1OC

>  <class-assignment>
0 (no)

$$$$
>  <molecule>
C#CCOCCOCCOCCNc1nc(N2CCN(C(=O)[C@H](CO)n3cc([C@@H](N)C(C)C)nn3)CC2)nc(N2CCN(C(=O)[C@H](CCCCN)n3cc([C@@H](N)[C@H](C)CC)nn3)CC2)n1

>  <class-assignment>
0 (no)

$$$$
>  <molecule>
CCCCCc1cc(=O)oc2c(C(CCN3CCCCC3)c3ccc(OC)cc3)c(OC)cc(OC)c12 (stereo not drawn)

>  <class-assignment>
0 (no)

$$$$
>  <molecule>
CCCCCCCCCCOC(=O)Cn1c(COc2ccccc2)[n+](C)c2ccccc21

>  <class-assignment>
0 (no)

$$$$
>  <molecule>
CCC1CCCCN1CCCNC(=O)C1CCN(c2ncnc3c2nc2n3CCCCC2)CC1 (stereo not drawn)

>  <class-assignment>
0 (no)

$$$$
>  <molecule>
CCc1ccc(OCC(O)CN2CCC(CN3C(=O)c4cccc5cccc(c45)C3=O)CC2)cc1 (stereo not drawn)

>  <class-assignment>
0 (no)

$$$$

* * *

assay: cytotoxicity toward NIH3T3 fibroblasts, dose response, counter-screen, cell-based, ATP luminescence, mouse fibroblasts (AID 2010); type: functional;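 note: cells exposed to compound for about 90 hours before reading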
Calls of active or inactive are those of the source.
property-name: EC50

>  <compound>
C=CCc1cccc(/C=N/NC(=O)CNc2ccccc2OC)c1O

>  <property-name>
EC50

>  <value>
7.37 µM (active)

$$$$
>  <compound>
CCc1ccc(OCC(O)CN2CCC(CN3C(=O)c4cccc5cccc(c45)C3=O)CC2)cc1 (centres undefined)

>  <property-name>
EC50

>  <value>
> 60 µM (not active)

$$$$
>  <compound>
Cc1cc(C)c(S(=O)(=O)c2ccc(Cl)cc2C)c(Cl)n1

>  <property-name>
EC50

>  <value>
35.9 µM (active)

$$$$
>  <compound>
COc1cc2c(cc1NC(=O)Nc1ccc(F)cc1)oc1ccccc12

>  <property-name>
EC50

>  <value>
> 30 µM (not active)

$$$$
>  <compound>
COC(=O)c1cc2ccsc2n1CC(=O)Nc1ccc(N(C)C)cc1

>  <property-name>
EC50

>  <value>
> 30 µM (not active)

$$$$
>  <compound>
Cc1[nH]c2ccccc2c1CN1CCC(Cc2ccccc2)CC1

>  <property-name>
EC50

>  <value>
10.9 µM (active)

$$$$
>  <compound>
c1ccc(COc2cccc(CNCc3cccnc3)c2)cc1

>  <property-name>
EC50

>  <value>
> 30 µM (not active)

$$$$
>  <compound>
Cc1ccc2c(c1)sc(-c1ccc(N(C)C)cc1)[n+]2C

>  <property-name>
EC50

>  <value>
> 60 µM (not active)

$$$$
>  <compound>
C/C(=N/NC(=O)C(O)(c1ccccc1)c1ccccc1)c1ccc([N+](=O)[O-])o1

>  <property-name>
EC50

>  <value>
> 60 µM (not active)

$$$$
